This listing pairs molecules with measured viability, T/C.
System: 596521-263-R-J1-PDC complex spheroid growth;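 note: spheroids exposed to compounds for 7 days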
Experiment: Anticancer human tumor 596521-263-R-J1-PDC patient-derived soft tissue sarcoma cell line growth inhibition [Asc]
Conditions: second compound 0.949 µM; first compound 10 µM; hits give low values
measure.name: viability, T/C (%)

[[record]]
molecule = "O=C(c1cc(Cc2n[nH]c(=O)c3ccccc23)ccc1F)N1CCN(C(=O)C2CC2)CC1 + CCN1C(C(=O)NC23CCC(C(=O)O)(CC2)CC3)C(c2cccc(Cl)c2F)C2(C(=O)Nc3cc(Cl)ccc32)C12CCCCC2"
target_of_assay = "596521-263-R-J1-PDC complex spheroid growth"
measure_name = "viability, T/C"
numeric_readout = 66.3

[[record]]
molecule = "C=C(F)C(=O)N1CCN(c2nc(OCC3CCCN3C)nc3c2CCN(c2cccc4cccc(Cl)c24)C3)CC1CC#N (centres undefined) + CCN1C(C(=O)NC23CCC(C(=O)O)(CC2)CC3)C(c2cccc(Cl)c2F)C2(C(=O)Nc3cc(Cl)ccc32)C12CCCCC2"
target_of_assay = "596521-263-R-J1-PDC complex spheroid growth"
measure_name = "viability, T/C"
numeric_readout = 2.73

[[record]]
molecule = "C=CC(=O)N1CCN(c2nc(=O)n(-c3c(C)ccnc3C(C)C)c3nc(-c4c(O)cccc4F)c(F)cc23)C(C)C1 (centres undefined) + CCN1C(C(=O)NC23CCC(C(=O)O)(CC2)CC3)C(c2cccc(Cl)c2F)C2(C(=O)Nc3cc(Cl)ccc32)C12CCCCC2"
target_of_assay = "596521-263-R-J1-PDC complex spheroid growth"
measure_name = "viability, T/C"
numeric_readout = 80.9

[[record]]
molecule = "C#Cc1c(F)ccc2cc(O)cc(-c3ncc4c(N5CC6CCC(C5)N6)nc(OCC56CCCN5CC(F)C6)nc4c3F)c12 (centres undefined) + CCN1C(C(=O)NC23CCC(C(=O)O)(CC2)CC3)C(c2cccc(Cl)c2F)C2(C(=O)Nc3cc(Cl)ccc32)C12CCCCC2"
target_of_assay = "596521-263-R-J1-PDC complex spheroid growth"
measure_name = "viability, T/C"
numeric_readout = 80.3

